system: OVCAR-8 ovarian; test: NCI tumour cell line growth inhibition, 48 h

| compound | TGI |
| --- | --- |
| CCCCc1ccc(Nc2nc(OC)c3ncn(C4CC(O)C(CO)O4)c3n2)cc1 (configuration not stated) | 35.2 µM |
| O=C(O)C1[O][Sb][O]C(C(=O)O)C1O (configuration not stated) | > 100 µM |
| CC(C)(Cl)C(Br)CCC(Br)(CCl)C(Cl)CBr (configuration not stated) | > 10 µM |
| CC(=O)OCC(=O)OC[C@H](OCc1ccccc1)[C@@H]1[C@H](OC(C)=O)C(=O)N1Cc1ccccc1 | > 100 µM |
| CCOC(=O)/C(=N/Nc1ccccc1)N1C(=S)C=C(C)NN(C)C1=S | > 100 µM |
| O=C(c1ccc(Cl)cc1)C(O)c1ccc(Cl)cc1 (configuration not stated) | > 100 µM |
| O=[S@]1c2ccc3ccccc3c2N[C@@H]2[C@H]1[C@H]1C=C[C@@H]2C1 | > 100 µM |
| CCCCCc1c(CCCC)c(=O)[nH]c2nc(NC(=O)CCCC)ccc12 | > 100 µM |
| COc1ccc(OC)c2c1C=CC(Br)=CC2 | > 1 µM |
| Cn1cc2ccccc2c1-c1nc(F)nc(Oc2ccc3c(c2)CC[C@@H]2C3CC[C@@]3(C)C2C[C@H](O)[C@@H]3O)n1 (some centres not stated) | 34.1 µM |
| CC[C@@H](C)/C=C(C)/C=C/C(=O)c1c(O)c(-c2ccc(O)cc2)cn(O)c1=O | 12 µM |
| C=CCC(N[C@@H](CO)c1ccccc1)c1cn(C(=O)OCC)c2ccccc12 (some centres not stated) | > 100 µM |

====

system: HCC-2998 colon; experiment: NCI tumour cell line growth inhibition, 48 h

| compound | TGI |
| --- | --- |
| COc1nc(N)c(NC(C)=O)c(=O)n1C | > 100 µM |
| COc1cccc(/C=C2\S/C(=N/Nc3nc(C)c(C)s3)NC2=O)c1O | > 100 µM |
| Clc1cccc(C2N3CCCCC3[C@@H]3c4[nH]c5ccccc5c4CCN23)c1 (stereo partly specified) | 99.7 µM |
| COc1ccc2c(c1)/C(=C\c1c(Cl)[nH]c3ccccc13)C(=O)N2 | 13.3 µM |
| CC1CCC2CC(=O)OC([C@@H]3C(=O)O[C@@H](C4=CCCC4)C4C(C)CCC43)C12 (stereo partly specified) | > 100 µM |
| O=C1CC(CC(=O)c2ccc(Br)cc2)C(=O)/C1=C(/O)c1ccc(Br)cc1 (stereo unspecified) | > 100 µM |

====

test system: NCI-H460 lung; assay: NCI tumour cell line growth inhibition, 48 h
Each record here notes measured TGI.

| compound | TGI |
| --- | --- |
| Cc1cn(Cc2ccc(C34CC5CC(CC(C5)C3)C4)c(O)c2)c(=O)[nH]c1=O | 42.3 µM |
| CC(=O)NCC1OC2COC(c3ccccc3)OC2C(NC(=O)c2ccccc2)C1OC(=O)c1ccccc1 (stereo not given) | > 100 µM |
| CCCCCc1c(CCCC)c(=O)[nH]c2nc(NC(=O)CCCC)ccc12 | > 100 µM |
| O=C1C2C3CC(C4C5C=CC(C5)C34)C2C2C3CC(C12)C1C2C=CC(C2)C31 (stereo not given) | > 100 µM |
| O=C(CSCC(=O)N/N=C\c1cccc([N+](=O)[O-])c1)N/N=C\c1cccc([N+](=O)[O-])c1 | > 100 µM |
| N/N=C(/Cc1nc2ccc(C(=O)c3ccccc3)cc2[nH]c1=O)C(=O)Nc1ccc([N+](=O)[O-])cc1[N+](=O)[O-] | > 100 µM |
| Clc1ccc(CCN[C@H]2CCCC[C@H]2N2CCCC2)cc1Cl | 58.4 µM |
| CCOC(=O)c1nc2ccc(C(F)(F)F)cc2nc1NCc1ccc(OC)c(OC)c1 | > 100 µM |
| COC(=O)c1cc(NC(=O)Cc2c[nH]c3ccccc23)cn1C | > 100 µM |
| CNS(=O)(=O)NNS(=O)(=O)c1ccc(OC)cc1 | > 100 µM |
| Cc1c(N=C/C=C/c2ccccc2)c(=O)n(-c2ccccc2)n1C | > 100 µM |
| Cn1cc(-c2cnn3c(N)c(Br)c(C4CCCNC4)nc23)cn1 (stereo not given) | 30.7 µM |
| C/C=C1/CC(C)C(C)(O)C(=O)OCC2C(O)CN3CCC(OC1=O)C23 (stereo not given) | > 100 µM |
| COc1ccc2c(c1)CCCN1CCc3ccccc3C21 (stereo not given) | > 100 µM |
| CC(=O)C1=C(O)C=C2Oc3c(C(=O)/C=C/c4cc(Cl)cc(Cl)c4)c(O)c(C)c(O)c3[C@]2(C)C1=O | 1.77 µM |
| CSCSCC(CO)NC(=O)/C(C)=C\c1c(C)[nH]c(=O)[nH]c1=O (stereo not given) | > 250 µM |
| COc1c(C(=O)NCCN(CCNC(=O)c2cccc(-c3cccc(C(=O)N(C)C)c3OC)c2OC)CCNC(=O)c2cccc(-c3cccc(C(=O)N(C)C)c3OC)c2OC)cccc1-c1cccc(C(=O)N(C)C)c1OC | > 100 µM |
| Cc1ccc2nc(C(C)C)c(=O)[nH]c2c1 | > 100 µM |
| O=[N+]([O-])c1ccc(-n2nc3ccc4c(no[n+]4[O-])c3n2)cc1 | > 100 µM |
| C/C=C1\CN2CCc3c([nH]c4ccccc34)C2CC1CCO (stereo not given) | > 100 µM |

====

tested on: SK-OV-3 ovarian; experiment: NCI tumour cell line growth inhibition, 48 h
Each record here notes measured GI50.

| compound | GI50 |
| --- | --- |
| CSc1nc2c(c(=O)n1C)CN(C1CCCCC1)C(=O)C(c1ccccc1)N2 (stereo unspecified) | 76.8 µM |
| CC[C@@H](C)/C=C(C)/C=C/C(=O)c1c(O)c(-c2ccc(O)cc2)cn(O)c1=O | 0.642 µM |
| CCCCCCCCCCCCOC1C(CNC(=O)C2OC3OC(C)(C)OC3C2NC(=O)CN2CCN(c3ccc(OC)cc3)CC2)OC2OC(C)(C)OC21 (stereo unspecified) | 5.87 µM |
| CCNC(=O)Oc1ccc(/C(=C(/C)Cc2ccc(OC)cc2)c2ccc(OCCN(CC)CC)cc2)cc1 | 2.84 µM |
| O=C(NCC1CCCO1)c1ccc(NC2=C(Cl)C(=O)N(Cc3ccccc3)C2=O)cc1 (stereo unspecified) | 18.6 µM |
| Cc1cc(Nc2nc(N[C@@H](C)c3ncc(F)cn3)ncc2Cl)n[nH]1 | 22.6 µM |

====

system: A549 NSCLC; test: NCI tumour cell line growth inhibition, 48 h

| compound | TGI |
| --- | --- |
| CC(C)C1NC(=O)CC(c2ccccc2)N(N=O)C1c1ccccc1 (stereo not given) | > 100 µM |
| COc1nc(N)c(NC(C)=O)c(=O)n1C | > 100 µM |
| COc1cc(C2(c3ncc[nH]3)SSSCC2O)ccc1O (stereo not given) | > 100 µM |
| COc1cc(C2c3cc4c(cc3C(OC(=O)C[n+]3ccccc3)C3COC(=O)C23)OCO4)cc(OC)c1OC (stereo not given) | > 100 µM |
| Cc1cc(Nc2nc(N[C@@H](C)c3ncc(F)cn3)ncc2Cl)n[nH]1 | > 100 µM |
| COc1cccc(C2c3cc4c(cc3OC(NNS(=O)(=O)c3ccc(C)cc3)C2C)OCO4)c1OC (stereo not given) | 11.4 µM |
| COC(=O)[C@@]12CC(C(C)C)[C@H]3CC(C(=O)C=C1OC)[C@H]32 (stereo not given in full) | > 100 µM |
| Cc1nc2c(o1)C(=Nc1ccccc1)c1nc(C)oc1C2=Nc1ccccc1 | 54.1 µM |
| OC(CN(CCCl)CCCl)C(O)C(O)C(O)CN(CCCl)CCCl (stereo not given) | > 100 µM |
| Cc1cc2nc3ccccc3n2c2nc(N)ccc12 | > 100 µM |
| Cn1cc(-c2cnn3c(N)c(Br)c(C4CCCNC4)nc23)cn1 (stereo not given) | > 100 µM |
| C=CCc1c(O)c2nsnc2c2nsnc12 | > 10 µM |
| CCOC(=O)/C=C(/C(=O)OCC)n1ccc(=O)n(Cc2cnnn2COCCOC(C)=O)c1=O | > 100 µM |
| CCN(Cc1cccc(Cl)c1)c1ccc(CO)c(Cl)c1 | 17 µM |
| CC(=O)NNc1nc(C)c(C(/C=C/c2ccccc2O)=N/N=C(N)N)s1 | > 100 µM |
| C/C(=C(\c1ccc(OCCN2CCCCCC2)cc1)c1ccc(OC(=O)c2ccccc2)cc1)c1ccc(Cl)cc1 | 10.9 µM |
| CCN(CC)CCCC(C)N/C(=C1\C(=O)NC(=O)\C1=C(/NC(C)CCCN(CC)CC)c1cccc(OC)c1)c1cccc(OC)c1 (stereo not given) | 1.8 µM |
| O=C(CSCC(=O)N/N=C\c1cccc([N+](=O)[O-])c1)N/N=C\c1cccc([N+](=O)[O-])c1 | > 100 µM |
| CCCc1cc(COC)c(C#N)c(=O)[nH]1 | > 100 µM |
| COc1c(C(=O)NCCN(CCNC(=O)c2cccc(-c3cccc(C(=O)N(C)C)c3OC)c2OC)CCNC(=O)c2cccc(-c3cccc(C(=O)N(C)C)c3OC)c2OC)cccc1-c1cccc(C(=O)N(C)C)c1OC | > 100 µM |
